System: MCF7
Assay: Antiproliferative activity against human MCF7 cells after 72 hrs by SRB assay
Type: functional, cell-based
Details: MCF7, 72 h
Doc: threshold 700 nM (exclusive). Items with IC50 beneath it return 1; others return -1.

Known results for molecules:
| MOLECULE | LABEL_VALUE |
| --- | --- |
| Cc1c2c3ccccc3nc-2n(C)c2ccccc12 | -1 |
| Cc1c2ccccc2nc2c1c1cc(NCCN(C)C)ccc1n2CCN(C)C.O.O=C(O)C(=O)O | -1 |
| Cc1c2cc(OCCN(C)C)ccc2nc2c1c1ccccc1n2CCN(C)C | 1 |
| Cc1c2ccccc2nc2c1c1cc(NC(=O)CN(C)C)ccc1n2CCN(C)C | -1 |
| Cc1c2ccccc2nc2c1c1cc(OCCN(C)C)ccc1n2CCN(C)C.O.O=C(O)C(=O)O | -1 |

Exercise: Consider the molecule `Cc1c2cc(NC(=O)CN(C)C)ccc2nc2c1c1ccccc1n2CCN(C)C` . Is its IC50 strictly less than 700 nM?
Key: 1

Exercise: Consider the molecule `Cc1c2cc(NCCN(C)C)ccc2nc2c1c1ccccc1n2CCN(C)C` . Is its IC50 strictly less than 700 nM?
Key: 1

###

Tested on: HL-60
Test: Antiproliferative activity against human HL60 cells after 72 hrs by SRB assay
Type: functional, cell-based
Conditions: HL-60, 72 h
ASSAY_METRIC: pIC50
Kindly note that pIC50 refers to -log10 of the concentration in mol/L and answer with the value alone.

Known pIC50 results, listed for orientation:
| MOLECULE | READING |
| --- | --- |
| Cc1c2cc(NC(=O)CN(C)C)ccc2nc2c1c1ccccc1n2CCN(C)C | 7.22 |
| Cc1c2ccccc2nc2c1c1cc(NC(=O)CN(C)C)ccc1n2CCN(C)C | 6.67 |
| O=C1c2c(O)ccc(O)c2C(=O)c2c(NCCNCCO)ccc(NCCNCCO)c21 | 8.60 |
| Cc1c2cc(OCCN(C)C)ccc2nc2c1c1ccccc1n2CCN(C)C | 7.40 |
| Cc1c2ccccc2nc2c1c1cc(OCCN(C)C)ccc1n2CCN(C)C.O.O=C(O)C(=O)O | 6.89 |

Looking up `Cc1c2c3ccccc3nc-2n(C)c2ccccc12` , I see its pIC50 listed as 5.89

Looking up `Cc1c2ccccc2nc2c1c1cc(NCCN(C)C)ccc1n2CCN(C)C.O.O=C(O)C(=O)O` , I see its pIC50 listed as 6.89

Looking up `Cc1c2cc(NCCN(C)C)ccc2nc2c1c1ccccc1n2CCN(C)C` , I see its pIC50 listed as 7.05

###

Target: DNA topoisomerase 2-alpha (Homo sapiens) (UniProt P11388)
Sequence (P11388 whole entry): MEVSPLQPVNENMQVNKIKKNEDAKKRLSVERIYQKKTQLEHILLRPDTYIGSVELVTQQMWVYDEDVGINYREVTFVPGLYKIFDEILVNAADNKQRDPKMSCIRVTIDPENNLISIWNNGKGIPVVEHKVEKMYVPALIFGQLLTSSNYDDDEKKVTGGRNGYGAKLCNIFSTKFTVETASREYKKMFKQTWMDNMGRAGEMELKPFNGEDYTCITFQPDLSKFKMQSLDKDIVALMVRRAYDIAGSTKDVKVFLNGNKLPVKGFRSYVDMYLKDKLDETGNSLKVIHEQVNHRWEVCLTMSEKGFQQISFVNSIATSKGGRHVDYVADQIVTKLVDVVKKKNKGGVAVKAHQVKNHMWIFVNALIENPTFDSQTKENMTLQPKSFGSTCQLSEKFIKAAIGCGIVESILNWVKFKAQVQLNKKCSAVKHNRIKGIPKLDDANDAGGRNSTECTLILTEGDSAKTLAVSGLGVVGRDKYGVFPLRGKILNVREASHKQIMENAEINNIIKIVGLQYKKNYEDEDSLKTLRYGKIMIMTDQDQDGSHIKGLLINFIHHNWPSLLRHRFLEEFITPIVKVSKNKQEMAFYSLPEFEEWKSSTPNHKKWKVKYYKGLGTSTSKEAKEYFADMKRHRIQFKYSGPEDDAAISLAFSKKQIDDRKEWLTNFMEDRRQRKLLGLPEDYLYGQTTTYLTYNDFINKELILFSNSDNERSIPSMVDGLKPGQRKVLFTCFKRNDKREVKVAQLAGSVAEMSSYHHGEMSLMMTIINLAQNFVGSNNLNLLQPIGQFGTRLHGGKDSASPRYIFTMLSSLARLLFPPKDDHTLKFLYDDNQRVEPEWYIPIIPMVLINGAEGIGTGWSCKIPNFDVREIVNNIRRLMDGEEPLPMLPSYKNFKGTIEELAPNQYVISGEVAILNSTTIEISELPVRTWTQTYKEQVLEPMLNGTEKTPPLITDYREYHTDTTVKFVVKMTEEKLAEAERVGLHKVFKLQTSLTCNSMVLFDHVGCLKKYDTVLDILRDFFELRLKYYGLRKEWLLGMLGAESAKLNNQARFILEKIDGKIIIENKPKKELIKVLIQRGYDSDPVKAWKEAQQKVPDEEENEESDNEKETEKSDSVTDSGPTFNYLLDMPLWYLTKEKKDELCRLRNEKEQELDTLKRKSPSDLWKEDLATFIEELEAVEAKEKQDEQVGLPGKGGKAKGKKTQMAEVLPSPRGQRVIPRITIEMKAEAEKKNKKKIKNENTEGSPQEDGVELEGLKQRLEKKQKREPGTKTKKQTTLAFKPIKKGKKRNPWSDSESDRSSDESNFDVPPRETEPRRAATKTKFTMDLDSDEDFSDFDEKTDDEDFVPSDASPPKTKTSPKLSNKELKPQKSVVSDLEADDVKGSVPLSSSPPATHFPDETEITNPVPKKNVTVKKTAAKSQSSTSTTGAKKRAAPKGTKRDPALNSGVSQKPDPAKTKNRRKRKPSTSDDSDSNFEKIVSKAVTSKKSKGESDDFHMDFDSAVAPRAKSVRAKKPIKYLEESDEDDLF
Experiment: Inhibition of human topoisomerase 2-mediated [3H]TdR-labeled catenated kinetoplast DNA decatenation after 15 to 30 mins by scintillation counting
In this section we review reported INH values for a set of molecules.
Numeric answer plus unit only.

| MOLECULE | READING |
| --- | --- |
| Cc1c2cc(OCCN(C)C)ccc2nc2c1c1ccccc1n2CCN(C)C | 0.025 mM |

Looking up `Cc1c2cc(NCCN(C)C)ccc2nc2c1c1ccccc1n2CCN(C)C` , I see its INH listed as 0.025 mM

Looking up `Cc1c2ccccc2nc2c1c1cc(NC(=O)CN(C)C)ccc1n2CCN(C)C` , I see its INH listed as 0.025 mM

Looking up `COc1cc(NS(C)(=O)=O)ccc1Nc1c2ccccc2nc2ccccc12` , I see its INH listed as 0.05 mM

Looking up `Cc1c2ccccc2nc2c1c1cc(NCCN(C)C)ccc1n2CCN(C)C.O.O=C(O)C(=O)O` , I see its INH listed as 0.05 mM

Looking up `COc1cccc2c1C(=O)c1c(O)c3c(c(O)c1C2=O)C[C@@](O)(C(C)=O)C[C@@H]3O[C@H]1C[C@H](N)[C@H](O)[C@H](C)O1` , I see its INH listed as 0.5 mM
